assay_overview: Cmax in Beagle dog at 20 mg/kg, po
Assay type: ADME, organism-based, Canis lupus familiaris
Set-up: dose 20 mg/kg, route oral
setup_conditions: in vivo
measure: Cmax

Determine its reported Cmax: `O=C(O[C@@H]1COc2nc([N+](=O)[O-])cn2C1)N1CCN(c2ccc(OC(F)(F)F)cc2)CC1`
5800 ng/mL

====

assay_overview: Cmax in high fat diet fed Beagle dog at 20 mg/kg, po
Format: ADME, organism-based, Canis lupus familiaris
Set-up: dose 20 mg/kg, route oral
setup_conditions: in vivo
measure: Cmax (ng/mL)
Please reply with the bare figure in ng/mL and do not write the unit itself.

Determine its reported Cmax: `O=C(O[C@@H]1COc2nc([N+](=O)[O-])cn2C1)N1CCN(c2ccc(OC(F)(F)F)cc2)CC1`
5200

====

assay_overview: AUC (0 to 24 hrs) in Sprague-Dawley rat at 20 mg/kg, po
Format: ADME, organism-based
Parameters: time < 24 hr, dose 20 mg/kg, route oral
setup_conditions: plasma
measure: AUC(0-t) at 24 h (ng·h/mL)
Please reply with the bare figure in ng·h/mL and do not write the unit itself.

Determine its reported AUC(0-t) at 24 h: `O=C(O[C@@H]1COc2nc([N+](=O)[O-])cn2C1)N1CCN(c2ccc(OC(F)(F)F)cc2)CC1`
67400

====

Reported values of solubility thermodynamic for individual entries
assay_overview: Thermodynamic solubility of the compound at pH 7.4
Assay type: physicochemical
setup_conditions: buffer, read-out: Therm_solubility
Please reply with the bare figure in µM and do not write the unit itself.

O=C(O[C@@H]1COc2nc([N+](=O)[O-])cn2C1)N1CCN(c2ccc(OC(F)(F)F)cc2)CC1 33

Now consider a different compound.
Determine its reported solubility thermodynamic: `O=[N+]([O-])c1cn2c(n1)OC[C@@H](OCc1ccc(OC(F)(F)F)cc1)C2`
30

====

assay_overview: Cmax in CD-1 mouse plasma at 40 mg/kg, po
Type: ADME, organism-based
Parameters: dose 40 mg/kg, route oral
measure: Cmax (ng/mL)
Please reply with the bare figure in ng/mL and do not write the unit itself.

In the examples that follow, each entry is paired with its recorded Cmax.
O=C(Nc1ccc(OC(F)(F)F)cc1)O[C@@H]1COc2nc([N+](=O)[O-])cn2C1 1400
O=C(Nc1ccc(-c2ccc(OC(F)(F)F)cc2)cc1)O[C@@H]1COc2nc([N+](=O)[O-])cn2C1 520
O=C(O[C@@H]1COc2nc([N+](=O)[O-])cn2C1)N1CCN(c2ccc(OC(F)(F)F)cc2)CC1 2500

Determine its reported Cmax: `O=C(Nc1ccc(-c2ccc(OC(F)(F)F)cc2)cc1)N[C@@H]1COc2nc([N+](=O)[O-])cn2C1`
480

====

assay_overview: Cmax in CD-1 mouse lung at 40 mg/kg, po
Assay type: ADME, organism-based
Design: dose 40 mg/kg, route oral
measure: Cmax (ng/mL)
Please reply with the bare figure in ng/mL and do not write the unit itself.

In the examples that follow, each entry is paired with its recorded Cmax.
O=C(Nc1ccc(OC(F)(F)F)cc1)O[C@@H]1COc2nc([N+](=O)[O-])cn2C1 3800
O=C(Nc1ccc(-c2ccc(OC(F)(F)F)cc2)cc1)O[C@@H]1COc2nc([N+](=O)[O-])cn2C1 6900
O=C(O[C@@H]1COc2nc([N+](=O)[O-])cn2C1)N1CCN(c2ccc(OC(F)(F)F)cc2)CC1 11700

Now consider a different compound.
Determine its reported Cmax: `O=C(Nc1ccc(-c2ccc(OC(F)(F)F)cc2)cc1)N[C@@H]1COc2nc([N+](=O)[O-])cn2C1`
4700

Data provenance: ChEMBL document CHEMBL1944507
